cell viability reference
- Tested on: SEM cells
- EXPERIMENTAL_PROTOCOL: cell viability relative to DMSO control; higher = less cytotoxic
- MEASUREMENT_CONTEXT: RPMI 5 mM glucose + 10% dialyzed FBS; 48 h; 0.00702 µM
Please respond with the number in % and leave the unit unwritten.

Sample records with cell viability:
COMPOUND_STRUCTURE_STRING: CN1\N=C(N)/C2=C[N]([C@@H]3O[C@H](CO[P](O)(O)=O)[C@@H](O)[C@H]3O)C4=C2C1=NC=N4
STUDY_TARGET: SEM cells
cell viability, %: 40
--
COMPOUND_STRUCTURE_STRING: O=C1Nc2ccc(I)cc2/C1=C/c1cc(Br)c(O)c(Br)c1
STUDY_TARGET: SEM cells
cell viability, %: 115
--
COMPOUND_STRUCTURE_STRING: C/C(O)=C(\C#N)C(=O)Nc1cc(Br)ccc1Br
STUDY_TARGET: SEM cells
cell viability, %: 108

Shifting focus to the molecule that follows.
Form field cell viability for item CC[C@@]1(O)C(=O)OCC/2=C1/C=C3\N(CC4=CC5=CC(=CC=C5N=C34)O)C2=O on SEM cells: 114

###

- Test system: NOMO1
- EXPERIMENTAL_PROTOCOL: cell viability relative to DMSO control; higher = less cytotoxic
- MEASUREMENT_CONTEXT: HPLM + 10% dialyzed FBS; 48 h; 0.00234 µM
READOUT_LABEL: cell viability (%)
Please respond with the number in % and leave the unit unwritten.

Sample records with cell viability:
COMPOUND_STRUCTURE_STRING: O=C1Nc2ccc(I)cc2/C1=C/c1cc(Br)c(O)c(Br)c1
cell viability (%): 96.5
--
COMPOUND_STRUCTURE_STRING: Oc1cccc(-c2nc(N3CCOCC3)c3oc4ncccc4c3n2)c1
cell viability (%): 92.1
--
COMPOUND_STRUCTURE_STRING: CN[C@@H](C)C(=O)N[C@H]1CN(C(=O)CC(C)C)CC[C@H]2CC[C@@H](C(=O)NC(c3ccccc3)c3ccccc3)N2C1=O
cell viability (%): 118
--
COMPOUND_STRUCTURE_STRING: Cc1cc(Nc2cc(CN3CCOCC3)c3nc(C)c(Cc4ccc(Cl)cc4F)n3n2)[nH]n1
cell viability (%): 121
--
COMPOUND_STRUCTURE_STRING: CC(/C=C/C(=O)NO)=C\[C@@H](C)C(=O)c1ccc(N(C)C)cc1
cell viability (%): 104
--
COMPOUND_STRUCTURE_STRING: Nc1ncnc2ccccc12
cell viability (%): 100
--
COMPOUND_STRUCTURE_STRING: O=C(O)CCn1c2c(c3ccccc31)C[C@H](N[S+](=O)([O-])c1ccc(F)cc1)CC2
cell viability (%): 112
--
COMPOUND_STRUCTURE_STRING: Cc1ccc([S+](=O)([O-])Nc2nc3ccccc3nc2Nc2ccc3nsnc3c2)cc1
cell viability (%): 106

Entry under test: ClC1=CC\2=C(NC(=O)\C(=C2N[C@@H]3CN4CCC3CC4)C5=NC6=C([NH]5)C=CC=C6)C=C1 . Its cell viability was 123

###

cell viability reference
- Test system: SEM cells
- EXPERIMENTAL_PROTOCOL: cell viability relative to DMSO control; higher = less cytotoxic
- MEASUREMENT_CONTEXT: RPMI 5 mM glucose + 10% dialyzed FBS; 48 h; 0.0211 µM
Please respond with the number in % and leave the unit unwritten.

Sample records with cell viability:
COMPOUND: C[C@H]1[C@@H](C(=O)C[C@H]2O[C@@H]3O[C@]4(C)CC[C@H]5[C@H](C)CC[C@@H]([C@H]2C)[C@@]35OO4)O[C@@H]2O[C@]3(C)CC[C@H]4[C@H](C)CC[C@@H]1[C@@]24OO3
TEST_RESULT: 99.7
//
COMPOUND: CN1C(=O)C[C@H](C(=O)N[C@@H](Cc2cnc[nH]2)C(=O)N2CCC[C@H]2C(N)=O)NC1=O
TEST_RESULT: 122
//
COMPOUND: CC(/C=C/C(=O)NO)=C\[C@@H](C)C(=O)c1ccc(N(C)C)cc1
TEST_RESULT: 105
//
COMPOUND: Nc1ncnc2ccccc12
TEST_RESULT: 16.7
//
COMPOUND: CC(C)c1cnn2c(NCc3ccccc3)cc(NCCCCCCN)nc12
TEST_RESULT: 121
//
COMPOUND: CN1c2ccccc2C(=O)N2CCc3c([nH]c4ccccc34)C21 (configuration not stated)
TEST_RESULT: 114
//
COMPOUND: CCCCC(C=O)NC(=O)C(CC(C)C)NC(=O)OCc1ccccc1 (configuration not stated)
TEST_RESULT: 89.1
//
COMPOUND: Cn1cc(/C=C2\C(=O)Nc3cccnc32)c2ccccc21
TEST_RESULT: 101

Entry under test: CCC\C1=C\C(=O)NC(=S)N1 . Its cell viability was 54.4

Entry under test: NCCCCNCCCN . Its cell viability was 75.6

Entry under test: CC[C@]12\C=C/CN3CC[C@]4([C@@H](N(C)C5=CC(=C(C=C45)[C@]6(C[C@H]7C[C@H](CN(C7)CC8=C6[NH]C9=C8C=CC=C9)C(C)(F)F)C(=O)OC)OC)[C@](O)([C@@H]1OC(C)=O)C(=O)OC)[C@H]23 . Its cell viability was 68.9

Entry under test: CC[C@@]1(O)C(=O)OCC/2=C1/C=C3\N(CC4=CC5=CC(=CC=C5N=C34)O)C2=O . Its cell viability was 93.1

Entry under test: O=C(Nc1ncc(SCCN2CCCC2)s1)[C@]1(c2ccc([S+](=O)([O-])C3CC3)cc2)C[C@H]1C1CCCCC1 . Its cell viability was 118

Entry under test: CCO[C@@H]1OC(=O)C[C@@H]1NC(=O)[C@@H]1CCCN1C(=O)[C@@H](NC(=O)c1ccc(N)c(Cl)c1)C(C)(C)C . Its cell viability was 115

Entry under test: CN(C)c1nc(Cc2ccc(NC(=O)c3ccc4ccccc4c3)cc2)nc(Cl)c1CC(=O)O . Its cell viability was 122

Entry under test: COc1cccc([C@@H](C)NCCCc2ccccc2Cl)c1 . Its cell viability was 101

Entry under test: Nc1nnc(-c2cccc(Cl)c2Cl)c(N)n1 . Its cell viability was 16.1

Entry under test: C[C@@H](NC(=O)c1ncnc(N)c1Cl)c1ncc(C(=O)Nc2cc(C(F)(F)F)c(Cl)cn2)s1 . Its cell viability was 126

Entry under test: CC/1=C(/C(CC(=O)N1)C2=CC=C(C=C2)C(F)(F)F)C(=O)NC3=C(F)C=C4[NH]N=CC4=C3 (configuration not stated) . Its cell viability was 84

Entry under test: CC(C)C[C@H](NC(=O)CNC(=O)c1cc(Cl)ccc1Cl)B(O)O . Its cell viability was 16.8
